B1: HESX1 (parent)
chain: ENKPSTCSFSIERILGLDQKKDCV

# Variants of: B1
# Protocol Notes: protein stability index of a GFP-peptide fusion (GPS, HEK-293T) (PSI 1-6); higher = more stable;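 also: lentivirally expressed fusions sorted by FACS into six bins by GFP to DsRed ratio, PSI derived from sequencing read proportions per bin multiplied by bin number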
# Experimental Parameters: c terminus: a fixed tail appended
Recorded protein stability index by entry

[
  {
    "Mutation Annotation": "N2M",
    "protein stability index": 2.53
  },
  {
    "Mutation Annotation": "Q19G",
    "protein stability index": 3.06
  },
  {
    "Mutation Annotation": "R13G",
    "protein stability index": 3.78
  },
  {
    "Mutation Annotation": "P4W",
    "protein stability index": 2.54
  },
  {
    "Mutation Annotation": "D22T",
    "protein stability index": 2.02
  },
  {
    "Mutation Annotation": "K20R",
    "protein stability index": 2.41
  },
  {
    "Mutation Annotation": "V24N",
    "protein stability index": 3.79
  }
]
